Target: Bifunctional epoxide hydrolase 2 (Homo sapiens, UniProt P34913)
Sequence (P34913 whole entry): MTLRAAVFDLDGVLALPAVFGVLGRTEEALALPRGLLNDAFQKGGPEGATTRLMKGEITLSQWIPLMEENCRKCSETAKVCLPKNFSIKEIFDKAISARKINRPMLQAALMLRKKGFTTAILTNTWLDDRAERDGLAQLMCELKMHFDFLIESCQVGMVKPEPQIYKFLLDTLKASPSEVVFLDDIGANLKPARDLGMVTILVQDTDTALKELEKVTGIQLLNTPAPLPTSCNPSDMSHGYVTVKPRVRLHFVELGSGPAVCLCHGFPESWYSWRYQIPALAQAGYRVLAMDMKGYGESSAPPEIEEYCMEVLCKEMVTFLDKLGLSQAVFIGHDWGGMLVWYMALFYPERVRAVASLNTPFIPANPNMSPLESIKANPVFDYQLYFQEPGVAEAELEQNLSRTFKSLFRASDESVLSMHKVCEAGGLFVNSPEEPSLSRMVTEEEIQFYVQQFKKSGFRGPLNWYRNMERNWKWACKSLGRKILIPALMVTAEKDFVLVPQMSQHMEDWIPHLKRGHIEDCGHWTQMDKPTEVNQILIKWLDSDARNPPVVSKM
Assay: Inhibition of human recombinant soluble epoxide hydrolase expressed in baculovirus expression system by fluorimetric assay
pIC50: −log10 of the molar value.
pIC50: recorded values
Assay metric: pIC50

[
  {
    "Item smiles": "O=C(Nc1cccc(OCCCCN2CCN(C(=O)C(F)(F)F)CC2)c1)NC12CC3CC(CC(C3)C1)C2",
    "Tested system": "Bifunctional epoxide hydrolase 2 (Homo sapiens, UniProt P34913)",
    "Assay metric": "pIC50",
    "Reported": 8.74
  },
  {
    "Item smiles": "O=C(Nc1cccc(OCCN2CCNCC2)c1)NC12CC3CC(CC(C3)C1)C2",
    "Tested system": "Bifunctional epoxide hydrolase 2 (Homo sapiens, UniProt P34913)",
    "Assay metric": "pIC50",
    "Reported": 7.17
  },
  {
    "Item smiles": "Cc1ccc(S(=O)(=O)N2CCN(CCCCOc3cccc(NC(=O)NC45CC6CC(CC(C6)C4)C5)c3)CC2)cc1",
    "Tested system": "Bifunctional epoxide hydrolase 2 (Homo sapiens, UniProt P34913)",
    "Assay metric": "pIC50",
    "Reported": 8.48
  },
  {
    "Item smiles": "O=C(Nc1ccc(OCCCN2CCNCC2)cc1)NC12CC3CC(CC(C3)C1)C2",
    "Tested system": "Bifunctional epoxide hydrolase 2 (Homo sapiens, UniProt P34913)",
    "Assay metric": "pIC50",
    "Reported": 6.81
  },
  {
    "Item smiles": "CS(=O)(=O)N1CCN(CCCCOc2cccc(NC(=O)NC34CC5CC(CC(C5)C3)C4)c2)CC1",
    "Tested system": "Bifunctional epoxide hydrolase 2 (Homo sapiens, UniProt P34913)",
    "Assay metric": "pIC50",
    "Reported": 9.00
  },
  {
    "Item smiles": "O=C(Nc1cccc(OCCCN2CCNCC2)c1)NC12CC3CC(CC(C3)C1)C2",
    "Tested system": "Bifunctional epoxide hydrolase 2 (Homo sapiens, UniProt P34913)",
    "Assay metric": "pIC50",
    "Reported": 7.57
  },
  {
    "Item smiles": "CN1CCN(CCCOc2cccc(NC(=O)NC34CC5CC(CC(C5)C3)C4)c2)CC1",
    "Tested system": "Bifunctional epoxide hydrolase 2 (Homo sapiens, UniProt P34913)",
    "Assay metric": "pIC50",
    "Reported": 7.64
  },
  {
    "Item smiles": "CN1CCN(CCCCOc2ccc(NC(=O)NC34CC5CC(CC(C5)C3)C4)cc2)CC1",
    "Tested system": "Bifunctional epoxide hydrolase 2 (Homo sapiens, UniProt P34913)",
    "Assay metric": "pIC50",
    "Reported": 7.35
  },
  {
    "Item smiles": "O=C(Nc1cccc(OCCCCCN2CCNCC2)c1)NC12CC3CC(CC(C3)C1)C2",
    "Tested system": "Bifunctional epoxide hydrolase 2 (Homo sapiens, UniProt P34913)",
    "Assay metric": "pIC50",
    "Reported": 7.86
  }
]

###

log10 IC50: recorded values
Target: Bifunctional epoxide hydrolase 2 (Homo sapiens, UniProt P34913)
Sequence (P34913 whole entry): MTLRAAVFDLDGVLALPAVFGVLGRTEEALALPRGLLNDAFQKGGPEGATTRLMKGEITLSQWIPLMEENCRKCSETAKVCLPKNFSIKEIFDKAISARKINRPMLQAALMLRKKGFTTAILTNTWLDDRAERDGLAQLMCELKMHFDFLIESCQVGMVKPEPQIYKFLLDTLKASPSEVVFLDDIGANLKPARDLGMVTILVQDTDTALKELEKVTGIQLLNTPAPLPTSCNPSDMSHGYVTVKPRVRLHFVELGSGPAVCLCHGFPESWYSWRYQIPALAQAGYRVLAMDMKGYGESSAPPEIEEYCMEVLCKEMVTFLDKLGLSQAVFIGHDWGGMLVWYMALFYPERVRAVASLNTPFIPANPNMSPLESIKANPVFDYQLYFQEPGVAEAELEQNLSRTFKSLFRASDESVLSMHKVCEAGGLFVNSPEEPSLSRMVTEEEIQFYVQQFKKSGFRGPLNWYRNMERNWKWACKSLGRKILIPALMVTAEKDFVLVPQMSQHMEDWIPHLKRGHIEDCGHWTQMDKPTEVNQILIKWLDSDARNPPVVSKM
Assay: Inhibition of human recombinant soluble epoxide hydrolase expressed in baculovirus expression system by fluorimetric assay
Assay metric: log10 IC50 (log10 of the value in µM)

[
  {
    "Item smiles": "CN1CCN(CCCOc2ccccc2NC(=O)NC23CC4CC(CC(C4)C2)C3)CC1",
    "log10 IC50": 0.46
  },
  {
    "Item smiles": "O=C(Nc1ccccc1OCCCCN1CCNCC1)NC12CC3CC(CC(C3)C1)C2",
    "log10 IC50": 1.86
  },
  {
    "Item smiles": "CN1CCN(CCCCOc2cccc(NC(=O)NC34CC5CC(CC(C5)C3)C4)c2)CC1",
    "log10 IC50": -1.88
  },
  {
    "Item smiles": "O=C(Nc1cccc(OCCCC(=O)N2CCNCC2)c1)NC12CC3CC(CC(C3)C1)C2",
    "log10 IC50": -1.04
  },
  {
    "Item smiles": "CC(C)(C)OC(=O)N1CCN(CCCOc2ccc(NC(=O)NC34CC5CC(CC(C5)C3)C4)cc2)CC1",
    "log10 IC50": -1.84
  }
]

###

Biological target: Bifunctional epoxide hydrolase 2 (Homo sapiens)
Assay: Inhibition of human recombinant soluble epoxide hydrolase expressed in baculovirus expression system by fluorimetric assay
For each record, check the reported IC50: if it is below 20 nM write y, else write n.

[
  {
    "Item smiles": "CC(C)(C)OC(=O)N1CCN(C(=O)CCCOc2cccc(NC(=O)NC34CC5CC(CC(C5)C3)C4)c2)CC1",
    "Tested system": "Bifunctional epoxide hydrolase 2 (Homo sapiens)",
    "Class assignment": "n"
  },
  {
    "Item smiles": "CC(=O)N1CCN(CCCOc2ccc(NC(=O)NC34CC5CC(CC(C5)C3)C4)cc2)CC1",
    "Tested system": "Bifunctional epoxide hydrolase 2 (Homo sapiens)",
    "Class assignment": "y"
  },
  {
    "Item smiles": "CC(=O)N1CCN(CCOc2cccc(NC(=O)NC34CC5CC(CC(C5)C3)C4)c2)CC1",
    "Tested system": "Bifunctional epoxide hydrolase 2 (Homo sapiens)",
    "Class assignment": "y"
  },
  {
    "Item smiles": "CC(=O)N1CCN(CCCOc2cccc(NC(=O)NC34CC5CC(CC(C5)C3)C4)c2)CC1",
    "Tested system": "Bifunctional epoxide hydrolase 2 (Homo sapiens)",
    "Class assignment": "y"
  },
  {
    "Item smiles": "CC(C)(C)OC(=O)N1CCN(CCCOc2cccc(NC(=O)NC34CC5CC(CC(C5)C3)C4)c2)CC1",
    "Tested system": "Bifunctional epoxide hydrolase 2 (Homo sapiens)",
    "Class assignment": "y"
  },
  {
    "Item smiles": "O=C(Nc1cccc(OCCCCN2CCN(C(=O)c3ccc(C(F)(F)F)cc3)CC2)c1)NC12CC3CC(CC(C3)C1)C2",
    "Tested system": "Bifunctional epoxide hydrolase 2 (Homo sapiens)",
    "Class assignment": "y"
  },
  {
    "Item smiles": "CN1CCN(CCCCOc2ccccc2NC(=O)NC23CC4CC(CC(C4)C2)C3)CC1",
    "Tested system": "Bifunctional epoxide hydrolase 2 (Homo sapiens)",
    "Class assignment": "n"
  },
  {
    "Item smiles": "O=C(Nc1cccc(OCCCCN2CCN(C(=O)CCl)CC2)c1)NC12CC3CC(CC(C3)C1)C2",
    "Tested system": "Bifunctional epoxide hydrolase 2 (Homo sapiens)",
    "Class assignment": "y"
  },
  {
    "Item smiles": "O=C(Nc1ccc(OCCCCN2CCNCC2)cc1)NC12CC3CC(CC(C3)C1)C2",
    "Tested system": "Bifunctional epoxide hydrolase 2 (Homo sapiens)",
    "Class assignment": "n"
  },
  {
    "Item smiles": "CC(=O)N1CCN(CCCCOc2ccc(NC(=O)NC34CC5CC(CC(C5)C3)C4)cc2)CC1",
    "Tested system": "Bifunctional epoxide hydrolase 2 (Homo sapiens)",
    "Class assignment": "y"
  },
  {
    "Item smiles": "CC(C)(C)OC(=O)N1CCN(CCCCOc2cccc(NC(=O)NC34CC5CC(CC(C5)C3)C4)c2)CC1",
    "Tested system": "Bifunctional epoxide hydrolase 2 (Homo sapiens)",
    "Class assignment": "y"
  },
  {
    "Item smiles": "CC(C)(C)OC(=O)N1CCN(CCCCOc2ccccc2NC(=O)NC23CC4CC(CC(C4)C2)C3)CC1",
    "Tested system": "Bifunctional epoxide hydrolase 2 (Homo sapiens)",
    "Class assignment": "y"
  },
  {
    "Item smiles": "CC(C)(C)OC(=O)N1CCN(CCCOc2ccccc2NC(=O)NC23CC4CC(CC(C4)C2)C3)CC1",
    "Tested system": "Bifunctional epoxide hydrolase 2 (Homo sapiens)",
    "Class assignment": "n"
  },
  {
    "Item smiles": "CC(=O)N1CCN(CCCCOc2ccccc2NC(=O)NC23CC4CC(CC(C4)C2)C3)CC1",
    "Tested system": "Bifunctional epoxide hydrolase 2 (Homo sapiens)",
    "Class assignment": "n"
  },
  {
    "Item smiles": "CC(=O)N1CCN(CCCCOc2cccc(NC(=O)NC34CC5CC(CC(C5)C3)C4)c2)CC1",
    "Tested system": "Bifunctional epoxide hydrolase 2 (Homo sapiens)",
    "Class assignment": "y"
  },
  {
    "Item smiles": "CC(C)(C)OC(=O)N1CCN(CCOc2cccc(NC(=O)NC34CC5CC(CC(C5)C3)C4)c2)CC1",
    "Tested system": "Bifunctional epoxide hydrolase 2 (Homo sapiens)",
    "Class assignment": "y"
  },
  {
    "Item smiles": "CC(C)(C)OC(=O)N1CCN(CCCCCOc2cccc(NC(=O)NC34CC5CC(CC(C5)C3)C4)c2)CC1",
    "Tested system": "Bifunctional epoxide hydrolase 2 (Homo sapiens)",
    "Class assignment": "y"
  }
]
